Test system: Liver
protocolSummary: Drug uptake in Sprague-Dawley rat liver assessed per gram of liver at 10 mg/kg, po after 24 hrs by HPLC-UV analysis
Format: ADME, organism-based
experimentalConditions: in vivo
Would you kindly list Drug uptake for each of these molecules?
One number for each entry, in µg/g.

The cases that follow already have their Drug uptake on record.
molecule	Drug uptake [µg/g]
CCCCCCCCCCCCc1c(O)c2ccccc2oc1=O	0.7
CCCCCCCCCCCC(c1ccc(Cl)cc1)c1c(O)c2ccccc2oc1=O (stereo unspecified)	3
CCCCCCCCCCCC(c1ccc(F)cc1)c1c(O)c2ccccc2oc1=O (stereo unspecified)	0.7
CCCCCCCCCCCC(c1ccc(Cl)cc1Cl)c1c(O)c2ccccc2oc1=O (stereo unspecified)	3.5
CCCCCCCCCCCC(c1ccccc1)c1c(O)c2ccccc2oc1=O (stereo unspecified)	0.7

Now consider a different molecule.
Reported Drug uptake for CCC(c1ccccc1)c1c(O)c2ccccc2oc1=O (stereo unspecified) : what is it?
12.8

Values compiled from ChEMBL document CHEMBL4004874.
